- systemTested: T1, N39 (HIV-1, N-terminal acetyl (Ac-); C-terminal amide (-NH2))
- T1 peptide: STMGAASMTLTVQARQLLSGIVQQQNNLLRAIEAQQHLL
- experimentalProtocol: circular dichroism temperature scan at 220 nm of the 1:1 mixture with N39, 10 µM each in PBS pH 7.2
Ends that are not written are not given here. * marks the point of attachment. Stearoyl = CCCCCCCCCCCCCCCCCC(=O)*; Palmitoyl = CCCCCCCCCCCCCCCC(=O)*; Lauroyl = CCCCCCCCCCCC(=O)*; Octanoyl = CCCCCCCC(=O)*
Rule: Tm value of the complex under 70 °C gives false, otherwise true.

Previously resolved entries follow.
Ac-YTSLIHSLIEESQNQQEKNEQELLELDK (not fully specified (residue 28, C-terminus), also called T-20-based lipopeptide) [LP-40] :: false
Ac-WEQKIEELLKKAEEQQKKNEEELKKLEK(Palmitoyl)-NH2 [LP-52] :: true
Ac-WEQKIEELLKKAEEQQKKNEEELKKLEK(Stearoyl)-NH2 [LP-80] :: true
Ac-WEQKIEELLKKAEEQQKKNEEELKKLEK(Octanoyl)-NH2 [LP-82] :: false
Ac-WEQKIEELLKKAEEQQKKNEEELKK(Stearoyl)-NH2 [LP-91] :: false

Here's the next entry for you.
API: above_or_equal(metric=Tm value of the complex, cutoff=70 °C) for item Ac-WEQKIEELLKKAEEQQKKNEEELKKLEK(Lauroyl)-NH2 [LP-81]
true
